Taken from patent US9206432B2.

# System: lacZ under control of the tetA promoter (PtetA) in E. coli KM3
# Format: cell-based
# condition.set: Table 6, reverse repressor hits; nicosulfuron, same plate assay format (20 ppm)
Overview of reported relative β-galactosidase activity, inducer Ns across a group of molecules:
metric.name: relative β-galactosidase activity, inducer Ns

molecule	reported.measurement
L1-25: library L1 hit with reverse repressor activity (SEQ ID NO: 1206-1213) (protein, rSuR L1-25) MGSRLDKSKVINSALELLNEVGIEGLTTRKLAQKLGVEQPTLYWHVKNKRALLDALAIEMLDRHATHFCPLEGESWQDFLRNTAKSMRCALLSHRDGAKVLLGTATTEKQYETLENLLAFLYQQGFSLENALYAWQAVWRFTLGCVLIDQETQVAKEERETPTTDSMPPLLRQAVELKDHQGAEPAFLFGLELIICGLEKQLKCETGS	1.21
L1-18: library L1 hit with reverse repressor activity (SEQ ID NO: 1206-1213) (protein, rSuR L1-18) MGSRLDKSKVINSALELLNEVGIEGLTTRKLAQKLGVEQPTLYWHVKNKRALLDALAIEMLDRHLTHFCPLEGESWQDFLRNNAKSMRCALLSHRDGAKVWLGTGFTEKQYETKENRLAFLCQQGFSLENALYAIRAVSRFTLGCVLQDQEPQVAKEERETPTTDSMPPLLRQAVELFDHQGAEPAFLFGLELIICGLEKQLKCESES	1.44
